For each entry below, report its apparent KD of MS2 coat protein value.
System: MS2 coat protein
Test: apparent KD of MS2 coat protein; higher = weaker reporter binding
Conditions: Eterna round: R107; input ligand: tryptophan 2.4 mM
Note: state the figure and append the unit.

input: Report measured apparent KD of MS2 coat protein; entry is UGAUGGUACGGAAGGAGCGUGUAAGAACAAGAACAUGAGGAUCACCCAUGUAUUAAUUUAACACAGGUAGGUCGCCGAGUUAUUG [11.G]
output: 16.5 nM

input: Give a short answer stating reported apparent KD of MS2 coat protein for UCUUACUUGGUAGAUACCAGCGUGUUAUCUUUCUUUUGACAUGAGGAUCACCCAUGUAUAUGCCCUUGGCAGCUGCAUAGUGUGU [#02 Same State - Theophylline B] .
output: 30.1 nM

input: Answer with reported apparent KD of MS2 coat protein of ACAUGAAGAACAGCGGUGGGCGCGCUCGAUACCAGUACUUUGAAAUACCCUUGGCAGCGACAUGAGGAUCACCCAUGUGAGAUGA [XTheo A #3]
output: 15.7 nM

input: Find the measured apparent KD of MS2 coat protein of UUGAUCAUAUAUGAAAACAUAUAUGCAGAAGGAGCGUGAUAAAACACAGGUAGGUCGCUGAAGGGAACAUGAGGAUCACCCAUGU [AstrosSSArgA#3] and report it.
output: 26.8 nM

input: Name the recorded apparent KD of MS2 coat protein of the item GCUAGUGGCAGAAGGAGCGACAUUAAAAGUGGUCGAUACAUGAGGAUCACCCAUGUACUAUGUCAGGUAGGUCGCUGCCACUAGC [EAB NP+V+V2 #4 +-Same Structure] in your answer.
output: 30.7 nM

input: Consider the sequence GGGCAAGAGGGAAGGAGCGUCAGCUGAGUCACAUGAGGAUCACCCAUGUCGCACAUAGUGUGACAGGUAGGUCGCCCUCUACCCU [Esceinan] . State its measured apparent KD of MS2 coat protein.
output: 89.3 nM

input: Retrieve apparent KD of MS2 coat protein measured for AAUAAGCAGCUGCCUUCCUCAUGAGCAGAUACCAGCUAGGAAACUAGCCCUUGGCAGCUGCAACAUGAGGAUCACCCAUGUAAUA [(T)'-(M)'-(T1)-(T2)-(M1)-(M2)_Design4] and print it.
output: 43.7 nM

input: Note apparent KD of MS2 coat protein for the sequence shown: GGUUAACAUGAGGAUCACCCAUGUCUUGAUACCAGUCGUUAUCUUGACCCUUGGCAGCAAGAUGACCGUUAGCAGCCGUCUUCUC [theeternabot_sameState_MS2_Theo_A_45]
output: 13.2 nM

input: Fill in reported apparent KD of MS2 coat protein for this entry: ACACAUGAGGAUCACCCAUGUGCGCUGGAAGGAGCGCAGAAUCAUGCAGGUAGGUCGCCAGUGCCCUUUGAUAAAGGGAAAAGAG [Reor]
output: 64.3 nM

input: Please supply the value of reported apparent KD of MS2 coat protein for the item GGUGGGACUUGUGAUACCAGCCUAAUUCGAAUCGAAUUGCACAUGAGGAUCACCCAUGUCGGCCCUUGGCAGCAUGAGUAUUUAU [Aagexe]
output: 255 nM

input: Identify apparent KD of MS2 coat protein associated with the sequence GAUGAUAUUGCAGAUACCAGACACAUGAGGAUCACCCAUGUCUCUGAGAUGAAGGAUCGUGUCCCUUGGCAGCUGCGAUAUCAUC [Bulgaria]
output: 30.3 nM

input: Provide one value: measured apparent KD of MS2 coat protein of GCAUCCUAGUCGGCCGCCACUGACAUGAGGAUCACCCAUGUACAUGAGGAUCACCCAUGUUGUAGCAGGACCGGGACUAGGAUGC [SS Tryp B #17]
output: 75.6 nM

input: Retrieve apparent KD of MS2 coat protein measured for AAUAAACAUGAGGAUCACCCAUGUAUGGAAGGAGCGGUGAAUAAACCAGGUAGGUCGCCAGUGUGAGGGUCAUCUAUGUAAUCAA [Exclusion - Arginine A (Freestyle 3)] and print it.
output: 49.5 nM

input: Check the records and state apparent KD of MS2 coat protein for AAUCUGUCGGGUGAUACCAGCCUCGGCACGUCUCGUGCCGAACAUGAGGAUCACCCAUGUGGCCCUUGGCAGCACAUGACAAAUC [Teaton]
output: 606 nM

input: For the sequence UGUAUGGACUGAAGGAGCGGGUUGAUAACCUGAGGAUCAUCCAGGUAAAAGGCGAAAGCCACCCAGGUAGGUCGCAGUCCAUACU , report apparent KD of MS2 coat protein.
output: 322 nM

input: Provide apparent KD of MS2 coat protein value for the following sequence: AAUAGCAUGAGGAUCACCCAUGUAAAAGAUACCAGAGUGAUGAUCCUCCCUUGGCAGCUUAACGCUGAUUGAUUACAAUCAGCGA
output: 34.4 nM

input: Look up and state reported apparent KD of MS2 coat protein for CUGACGGACUCGGCCGCCACUGAUAGUAGGACAUGAGGAUCACCCAUGUAAACGAACCUCAUAGCCAGGACCGGGAGUCACGAAG [Same State Tryptophan B GF 22]
output: 49.5 nM

input: Supply reported apparent KD of MS2 coat protein belonging to this sequence: UUACAUGAGGAUCACCCAUGUCAUAAUGAUACCAGAUAGUUAAUGAUCCCUUGGCAGCAUAAUACCUAGACAUUUAAGUCAUAGG [Aa]
output: 56.2 nM

input: Supply reported apparent KD of MS2 coat protein belonging to this sequence: GGGCGCGUGGACCGGCGUGCUCCGCUCCGUCGAGGACCGGUACGGCCGCCACUCGACAUGAGGAUCACCCAUGUGCGAGCUCGCG [#1 Exclusion - Tryptophan A Attempt #15 (HarryS)]
output: 191 nM

input: Specify apparent KD of MS2 coat protein for AUCGCACCUGGUGAUACCAGCAAUUGCUCGUGACAUGAGGAUCACCCAUGUGGCCAGUGAUGCCCUUGGCAGCAUGGUCGGUGCA [Same State - Theophylline B (Freestyle 25)] and stop.
output: 288 nM

input: Specify reported apparent KD of MS2 coat protein for the sequence shown: GAUGAACUAUUUGAUACCAGACUACAUGAGGAUCACCCAUGUGUGUUUAUACUUCAGUCAGUCCCUUGGCAGCAAAUAGUUUAUC [XTheo B #3]
output: 158 nM

input: Identify apparent KD of MS2 coat protein associated with the sequence CUAGGAAACUAGUAAGGGUGGUAUUGAGAUACCAGUACAGAAAUGUACCCUUGGCAGCUCACUGCAACAUGAGGAUCACCCAUGU [Ex Theophylline A 12]
output: 27 nM

input: Identify measured apparent KD of MS2 coat protein corresponding to CGGUAACCACAUGAGGAUCACCCAUGUGAAGGAGCGGCGAAUAAGCCAGGUAGGUCGCGCAUGAAUAAAUCAUGUAGGUGCCGAA [XArg-A 15 NuPack]
output: 99.8 nM
